Biological target: T1, TNFR1 (Homo sapiens, UniProt P19438)
T1 chain: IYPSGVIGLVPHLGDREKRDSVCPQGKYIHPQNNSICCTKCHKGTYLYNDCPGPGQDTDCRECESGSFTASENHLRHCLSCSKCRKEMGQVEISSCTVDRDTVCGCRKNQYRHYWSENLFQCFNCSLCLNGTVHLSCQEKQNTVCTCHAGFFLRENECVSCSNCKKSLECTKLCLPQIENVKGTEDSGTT
Test: yeast display SC50
The binders listed here are annotated with their apparent Kd (screen).
Please give a number only; it is taken to be in nM.

Some solved cases for reference:
BINDER | apparent Kd (screen) / nM
Y22S (designed binder) MTLQELLREEALRRAEAEAFRSALELLAEKFPEQKEYLLDLAEEIESQIRSLSGVDVEDVRKFLDKEWAWVKELLAEHPAELAEVEAARAARLAELRAEVEAKVAA | 0.79
H78V (designed binder) MTLQELLREEALRRAEAEAFRYALELLAEKFPEQKEYLLDLAEEIESQIRSLSGVDVEDVRKFLDKEWAWVKELLAEVPAELAEVEAARAARLAELRAEVEAKVAA | 0.869
L96C (designed binder) MTLQELLREEALRRAEAEAFRYALELLAEKFPEQKEYLLDLAEEIESQIRSLSGVDVEDVRKFLDKEWAWVKELLAEHPAELAEVEAARAARLAECRAEVEAKVAA | 0.49
E25M (designed binder) MTLQELLREEALRRAEAEAFRYALMLLAEKFPEQKEYLLDLAEEIESQIRSLSGVDVEDVRKFLDKEWAWVKELLAEHPAELAEVEAARAARLAELRAEVEAKVAA | 0.368
A76Q (designed binder) MTLQELLREEALRRAEAEAFRYALELLAEKFPEQKEYLLDLAEEIESQIRSLSGVDVEDVRKFLDKEWAWVKELLQEHPAELAEVEAARAARLAELRAEVEAKVAA | 0.446
P32V (designed binder) MTLQELLREEALRRAEAEAFRYALELLAEKFVEQKEYLLDLAEEIESQIRSLSGVDVEDVRKFLDKEWAWVKELLAEHPAELAEVEAARAARLAELRAEVEAKVAA | 0.593
E99L (designed binder) MTLQELLREEALRRAEAEAFRYALELLAEKFPEQKEYLLDLAEEIESQIRSLSGVDVEDVRKFLDKEWAWVKELLAEHPAELAEVEAARAARLAELRALVEAKVAA | 0.653
L82R (designed binder) MTLQELLREEALRRAEAEAFRYALELLAEKFPEQKEYLLDLAEEIESQIRSLSGVDVEDVRKFLDKEWAWVKELLAEHPAERAEVEAARAARLAELRAEVEAKVAA | 1.86

Query block: Can you share its apparent Kd (screen)? I mean this binder: S53L (designed binder) MTLQELLREEALRRAEAEAFRYALELLAEKFPEQKEYLLDLAEEIESQIRSLLGVDVEDVRKFLDKEWAWVKELLAEHPAELAEVEAARAARLAELRAEVEAKVAA
Result block: 2.25

Query block: Can you share its apparent Kd (screen)? I mean this binder: K62L (designed binder) MTLQELLREEALRRAEAEAFRYALELLAEKFPEQKEYLLDLAEEIESQIRSLSGVDVEDVRLFLDKEWAWVKELLAEHPAELAEVEAARAARLAELRAEVEAKVAA
Result block: 0.653

Query block: Can you share its apparent Kd (screen)? I mean this binder: L3V (designed binder) MTVQELLREEALRRAEAEAFRYALELLAEKFPEQKEYLLDLAEEIESQIRSLSGVDVEDVRKFLDKEWAWVKELLAEHPAELAEVEAARAARLAELRAEVEAKVAA
Result block: 0.593

Query block: Can you share its apparent Kd (screen)? I mean this binder: Q4P (designed binder) MTLPELLREEALRRAEAEAFRYALELLAEKFPEQKEYLLDLAEEIESQIRSLSGVDVEDVRKFLDKEWAWVKELLAEHPAELAEVEAARAARLAELRAEVEAKVAA
Result block: 3.3

Query block: Can you share its apparent Kd (screen)? I mean this binder: E43T (designed binder) MTLQELLREEALRRAEAEAFRYALELLAEKFPEQKEYLLDLATEIESQIRSLSGVDVEDVRKFLDKEWAWVKELLAEHPAELAEVEAARAARLAELRAEVEAKVAA
Result block: 0.79
